Target protein (sequence): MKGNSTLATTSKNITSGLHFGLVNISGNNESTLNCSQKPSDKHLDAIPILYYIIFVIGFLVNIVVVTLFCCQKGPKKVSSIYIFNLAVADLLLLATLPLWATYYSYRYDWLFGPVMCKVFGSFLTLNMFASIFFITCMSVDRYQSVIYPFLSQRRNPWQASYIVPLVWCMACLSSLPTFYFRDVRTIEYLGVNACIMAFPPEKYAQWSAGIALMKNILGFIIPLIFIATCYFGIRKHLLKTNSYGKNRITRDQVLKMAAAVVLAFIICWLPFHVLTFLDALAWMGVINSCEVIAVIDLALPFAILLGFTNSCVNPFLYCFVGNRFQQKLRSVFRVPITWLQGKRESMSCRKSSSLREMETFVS
measured attribute: IC50 (nM)

Below, 3 compounds whose answers are already recorded.
[[record]]
smiles_notation = "CCCCc1nc2ccc(NC(=O)N(C)C(C)C)cc2c(=O)n1Cc1ccc(-c2ccccc2S(=O)(=O)NC(=O)OCCC2CC2)cc1F"
measured_attribute = "IC50"
readout_number = 7.8

[[record]]
smiles_notation = "CCNC(=O)Nc1ccc2nc(CC)n(Cc3ccc(-c4ccccc4S(=O)(=O)NC(=O)c4ccccc4F)cc3F)c(=O)c2c1"
measured_attribute = "IC50"
readout_number = 65

[[record]]
smiles_notation = "CCNC(=O)Nc1ccc2nc(CC)n(Cc3ccc(-c4ccccc4S(=O)(=O)NC(=O)OCCC4CC4)cc3F)c(=O)c2c1"
measured_attribute = "IC50"
readout_number = 9.8


(I) CCc1ccc(C(=O)NS(=O)(=O)c2ccccc2-c2ccc(Cn3c(CC)nc4ccc(NC(=O)N(C)C(C)C)cc4c3=O)c(F)c2)cc1
(II) CCCCOC(=O)NS(=O)(=O)c1ccccc1-c1ccc(Cn2c(CCCC)nc3ccc(NC(=O)N(C)C(C)C)cc3c2=O)cc1
Lower value of IC50 belongs to which: I or II ? // output: label of the selected item I
(I: 8.9 nM, II: 60 nM)

----------
organism: Oryctolagus cuniculus; experiment: Ratio of inhibitory concentration against AT2 receptor of rat midbrain to AT1 receptor of rabbit aorta
measured attribute: Ratio

Below, 4 compounds whose answers are already recorded.
[[record]]
smiles_notation = "CCc1nc2ccc(NC(=O)N(C)C(C)C)cc2c(=O)n1Cc1ccc(-c2ccccc2S(=O)(=O)NC(=O)OCCC(C)C)cc1F"
measured_attribute = "Ratio"
readout_number = 0.33

[[record]]
smiles_notation = "CCc1nc2ccc(NC(=O)N(C)C(C)C)cc2c(=O)n1Cc1ccc(-c2ccccc2S(=O)(=O)NC(=O)OCCC2CC2)cc1F"
measured_attribute = "Ratio"
readout_number = 1.2

[[record]]
smiles_notation = "CCCc1nc2ccc(NC(=O)NC(C)C)cc2c(=O)n1Cc1ccc(-c2ccccc2S(=O)(=O)NC(=O)c2ccc(CC)cc2F)cc1F"
measured_attribute = "Ratio"
readout_number = 1.4

[[record]]
smiles_notation = "CCc1nc2ccc(NC(=O)NC(C)C)cc2c(=O)n1Cc1ccc(-c2ccccc2S(=O)(=O)NC(=O)OCCC2CC2)cc1F"
measured_attribute = "Ratio"
readout_number = 0.61


(P) CCc1ccc(C(=O)NS(=O)(=O)c2ccccc2-c2ccc(Cn3c(CC)nc4ccc(NC(=O)NC(C)C)cc4c3=O)c(F)c2)c(F)c1
(Q) CCNC(=O)Nc1ccc2nc(CC)n(Cc3ccc(-c4ccccc4S(=O)(=O)NC(=O)c4ccccc4F)cc3F)c(=O)c2c1
(R) CCc1nc2ccc(NC(=O)c3ccccn3)cc2c(=O)n1Cc1ccc(-c2ccccc2S(=O)(=O)NC(=O)OCCC(C)C)cc1F
Number of compounds to sort: 3. Sort criterion: Ratio, ascending. Order the labels as requested and give them as your answer. Q, R, P
(Q: 0.46, R: 0.79, P: 1.3)
